Tested on: Staphylococcus aureus
Assay: Antibacterial activity against methicillin-resistant Staphylococcus aureus MW2 BAA 1707 assessed as growth inhibition by standard microdilution method
Type: functional
Quick reference: log10 of MIC of the listed items.
A value of 2 here means MIC of 100 in µg/mL, since values are log10.

Example results:
Problem: Requested field: log10 of MIC. Item: CCCC=Cc1cc(-c2ccc3cc(CO)ccc3c2)ccc1O
Solution: 0.60

Problem: Return reported log10 of MIC; argument: CCCCCCCc1cc(-c2ccc3cc(CO)ccc3c2)ccc1O
Solution: 0.60

Problem: Could you tell me which log10 of MIC is on file for CCCCCC=Cc1cc(-c2ccc3cc(CO)ccc3c2)ccc1O ?
Solution: 0.60

Problem: // log10 of MIC lookup, key: CCCCCc1cc(-c2ccc3cc(C(=O)O)ccc3c2)ccc1O
Solution: 0.90

Problem: Looking for the measured log10 of MIC of CC(C)(C)c1cc(-c2ccc3cc(C(=O)O)ccc3c2)ccc1O , can you help?
Solution: 1.20

Problem: Fill blank: measured log10 of MIC of the compound CCCCCc1cc(-c2ccc3cc(CO)ccc3c2)ccc1O is ____.
Solution: 0.60

Problem: # query: log10 of MIC of entry CCCCCC=Cc1cc(-c2ccc3cc(C(=O)O)ccc3c2)ccc1O
Solution: 0.90

Problem: Given the entry CC12CC3CC(C)(C1)CC(c1cc(-c4ccc5cc(C(=O)O)ccc5c4)ccc1O)(C3)C2 , report its measured log10 of MIC.
Solution: 0.30

New cases:
Problem: Item CCCC=Cc1cc(-c2ccc3cc(C(=O)O)ccc3c2)ccc1O has what recorded log10 of MIC?
Solution: 1.20

Problem: Could you tell me which log10 of MIC is on file for CC(C)(C)c1cc(-c2ccc3cc(CO)ccc3c2)ccc1O ?
Solution: 0.90

Problem: # get_value(readout='log10 of MIC', item= CCCCCCCCCc1cc(-c2ccc3cc(C(=O)O)ccc3c2)ccc1O )
Solution: 0.60

Problem: What measured log10 of MIC goes with CCCCCCCC=Cc1cc(-c2ccc3cc(C(=O)O)ccc3c2)ccc1O ?
Solution: 0.60

Problem: I'd like to know its log10 of MIC. The compound in question is O=C(O)c1ccc2cc(-c3ccc(O)c(C45CC6CC(CC(C6)C4)C5)c3)ccc2c1 [O-DEMETHYLATED ADAPALENE]
Solution: 0.00

Problem: Looking for the measured log10 of MIC of CC12CC3CC(C)(C1)CC(c1cc(-c4ccc5cc(CO)ccc5c4)ccc1O)(C3)C2 , can you help?
Solution: 0.90

Problem: Item under review: CCCCCCCc1cc(-c2ccc3cc(C(=O)O)ccc3c2)ccc1O . Reported log10 of MIC?
Solution: 0.60

###

HC50 at 1 h values for the compounds below.
Assay: Hemolytic activity against human erythrocytes measured after 1 hr
Format: ADME, cell-based, Erythrocyte

Some solved cases for reference:
Problem: Would you kindly share the measured HC50 at 1 h for CCCC=Cc1cc(-c2ccc3cc(C(=O)O)ccc3c2)ccc1O ?
Solution: > 64 µg/mL

Problem: Data request, read-out HC50 at 1 h, for CC(C)(C)c1cc(-c2ccc3cc(C(=O)O)ccc3c2)ccc1O
Solution: > 64 µg/mL

Problem: I'd like to know its HC50 at 1 h. The compound in question is Cc1cc(-c2ccc3cc(C(=O)O)ccc3c2)ccc1O
Solution: > 64 µg/mL

Problem: Which HC50 at 1 h reading was recorded for the compound CCCC=Cc1cc(-c2ccc3cc(CO)ccc3c2)ccc1O ?
Solution: > 64 µg/mL

Problem: Would you kindly share the measured HC50 at 1 h for CCCCCCCC=Cc1cc(-c2ccc3cc(C(=O)O)ccc3c2)ccc1O ?
Solution: 51.5 µg/mL

Problem: Fill in: HC50 at 1 h of CCCCCCCCCc1cc(-c2ccc3cc(CO)ccc3c2)ccc1O is ___
Solution: > 64 µg/mL

Problem: Could you tell me which HC50 at 1 h is on file for Cc1cc(-c2ccc3cc(CO)ccc3c2)ccc1O ?
Solution: > 64 µg/mL

Problem: I'd like to know its HC50 at 1 h. The compound in question is CCCCCc1cc(-c2ccc3cc(CO)ccc3c2)ccc1O
Solution: > 64 µg/mL

Others:
Problem: Need HC50 at 1 h of CC12CC3CC(C)(C1)CC(c1cc(-c4ccc5cc(CO)ccc5c4)ccc1O)(C3)C2 , thanks.
Solution: > 64 µg/mL

Problem: Would you kindly share the measured HC50 at 1 h for OCc1ccc2cc(-c3ccc(O)cc3)ccc2c1 ?
Solution: > 64 µg/mL

Problem: Reported HC50 at 1 h for CCCCCC=Cc1cc(-c2ccc3cc(CO)ccc3c2)ccc1O : what is it?
Solution: > 64 µg/mL

Problem: Any idea what HC50 at 1 h was measured for CC(C)(C)c1cc(-c2ccc3cc(CO)ccc3c2)ccc1O ?
Solution: > 64 µg/mL

Problem: Looking for the measured HC50 at 1 h of O=C(O)c1ccc2cc(-c3ccc(O)c(C45CC6CC(CC(C6)C4)C5)c3)ccc2c1 [O-DEMETHYLATED ADAPALENE] , can you help?
Solution: > 64 µg/mL

Problem: // HC50 at 1 h lookup, key: CCCCCCCc1cc(-c2ccc3cc(CO)ccc3c2)ccc1O
Solution: > 64 µg/mL

Problem: State the recorded HC50 at 1 h for this entry: CCCCCC=Cc1cc(-c2ccc3cc(C(=O)O)ccc3c2)ccc1O
Solution: 45.4 µg/mL

Problem: What HC50 at 1 h value was documented for this compound, CCCCCCCc1cc(-c2ccc3cc(C(=O)O)ccc3c2)ccc1O ?
Solution: > 64 µg/mL

Problem: So what does the record say about HC50 at 1 h for CCCCCc1cc(-c2ccc3cc(C(=O)O)ccc3c2)ccc1O ?
Solution: > 64 µg/mL

Problem: Reported HC50 at 1 h for CCCCCCCCCc1cc(-c2ccc3cc(C(=O)O)ccc3c2)ccc1O : what is it?
Solution: 22.8 µg/mL

Problem: Which HC50 at 1 h value belongs to CCCCCCCC=Cc1cc(-c2ccc3cc(CO)ccc3c2)ccc1O ?
Solution: > 64 µg/mL

Problem: # input compound: CC12CC3CC(C)(C1)CC(c1cc(-c4ccc5cc(C(=O)O)ccc5c4)ccc1O)(C3)C2 ; wanted: its HC50 at 1 h
Solution: 15.2 µg/mL

Problem: I'd like to know its HC50 at 1 h. The compound in question is O=C(O)c1ccc2cc(-c3ccc(O)cc3)ccc2c1
Solution: > 64 µg/mL
